Target Or System: T1, CD123 (Homo sapiens (Human), UniProt P26951 19-305, limits assumed)
T1 construct: The CD123 construct used in the ELISA is not described; also called CD123-Signal
T1 sequence: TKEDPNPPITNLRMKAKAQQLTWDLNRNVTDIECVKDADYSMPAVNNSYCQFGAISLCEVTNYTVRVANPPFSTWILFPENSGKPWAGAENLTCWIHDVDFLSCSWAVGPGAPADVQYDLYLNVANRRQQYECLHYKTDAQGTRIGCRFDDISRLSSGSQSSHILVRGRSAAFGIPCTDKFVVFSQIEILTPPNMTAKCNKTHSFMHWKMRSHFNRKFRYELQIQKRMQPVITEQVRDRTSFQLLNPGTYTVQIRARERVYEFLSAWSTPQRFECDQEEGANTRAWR
Experiment: ELISA
Set-up: unit not given here
// not satisfied strictly below 4 in ELISA_avg; satisfied otherwise

Entry D domain of SEQ ID NO: 504 (designed binder) MGSWFWFKEDLAFIKEDLEALGGSEAELAWFEDGIAFFEWDLQDYKGKGNPEVEALRKEAAAIRDELQAYRHN : is its ELISA_avg no less than 4?
satisfied

Determine whether this binder has ELISA_avg no lower than 4: D domain of SEQ ID NO: 527 (designed binder) MGSWDHFKNDLAWIKKHLEALGGSEAELAEFEAVIAYFELYLQGYKGKGNPEVEALRKEAAAIRDELQAYRHN
not satisfied

# check: ELISA_avg of D domain of SEQ ID NO: 511 (designed binder) MGSWSWFKEDLASIKAVLEALGGSEAELAFFESDIAEFEQELQYYKGKGNPEVEALRKEAAAIRDELQAYRHN is greater than or equal to 4
satisfied

For this binder, is measured ELISA_avg 4 or higher? D domain of SEQ ID NO: 550 (designed binder) MGSWTYFKNDLAGIKEDLEALGGSEAELAQFEFEIAEFEWLLQDYKGKGNPEVEALRKEAAAIRDELQAYRHN
not satisfied

Decide: ELISA_avg of D domain of SEQ ID NO: 651 (designed binder) MGSWWEFNARLDAIEDRLMALGGSEAELAYFEDIIASFENILQQYKGKGNPEVEALWYEAYAIEKELNAYRHN >= 4?
not satisfied

Could you verify whether the entry D domain of SEQ ID NO: 349 (designed binder) MGSWTEFHDRLEAIDDRLWALGGSEAELAAFEKEIAAFESELQAYKGKGNPEVEYLREEAAQIRWELQAYRHN shows ELISA_avg of no less than 4?
satisfied

Test whether the binder D domain of SEQ ID NO: 600 (designed binder) MGSWYEFWDRLTAIEHRLWALGGSEAELAYFEDSIAHFEGSLQVYKGKGNPEVEALYKEAEAIEWELEAYRHN records ELISA_avg of 4 or higher.
satisfied

Reported ELISA_avg reaches at least 4 for D domain of SEQ ID NO: 619 (designed binder) MGSWHEFEKRLYAIEDRLIALGGSEAELAWFEDSIAWFEWDLQMYKGKGNPEVEALNEEADAIYQELDAYRHN ?
not satisfied

Does ELISA_avg meet or surpass 4 for D domain of SEQ ID NO: 445 (designed binder) MGSWSEFYVRVDAIYARLSALGGSEAELAAFEKEIAAFESELQAYKGKGNPEVEKLRVWAANIRHELQAYRHN ?
satisfied

# check: ELISA_avg of D domain of SEQ ID NO: 401 (designed binder) MGSWYEFYERLDAIEERLWALGGSEAELAAFEKEIAAFESELQAYKGKGNPEVEVLRDWAAWIREDLQAYRHN is greater than or equal to 4
satisfied
